Recorded IC50 by entry
target: p38 (Homo sapiens, UniProt Q16539); construct: 6xHis (N); experiment: in vitro inhibition of p38 (CPSB): purified recombinant 6xHis-p38, myelin basic protein substrate, 33P-ATP
Sequence (Q16539 whole entry): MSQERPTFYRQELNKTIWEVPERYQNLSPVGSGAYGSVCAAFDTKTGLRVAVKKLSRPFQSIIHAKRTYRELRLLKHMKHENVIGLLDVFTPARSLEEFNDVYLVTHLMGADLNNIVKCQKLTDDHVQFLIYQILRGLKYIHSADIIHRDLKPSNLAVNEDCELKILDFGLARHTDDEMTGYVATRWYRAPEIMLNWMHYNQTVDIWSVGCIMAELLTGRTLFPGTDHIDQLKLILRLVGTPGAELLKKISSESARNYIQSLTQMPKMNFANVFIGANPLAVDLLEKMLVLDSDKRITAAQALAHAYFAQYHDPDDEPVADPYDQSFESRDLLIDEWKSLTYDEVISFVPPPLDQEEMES
readout name: IC50

| compound | readout name | recorded result |
| --- | --- | --- |
| Fc1ccc(-c2[nH]c(SCC3CC3)nc2-c2ccncc2)cc1 [Compound 23] | IC50 | 1000 to 1800 nM |
| CCCCSc1nc(-c2ccncc2)c(-c2ccc(F)cc2)[nH]1 [Compound 40] | IC50 | 280 to 700 nM |
| O=C1c2ccccc2C(=O)N1CCCSc1nc(-c2ccc(F)cc2)c(-c2ccncc2)[nH]1 [Compound 2] | IC50 | 790 to 1800 nM |
| O=Cc1nc(-c2ccncc2)c(-c2ccc(F)cc2)[nH]1 [Compound 8] | IC50 | 800 nM |
